Hey, just so you know, these numbers are from PubChem BioAssay (NCI).

growth inhibition overview
Test: NCI Yeast Anticancer Drug Screen. Data for the mec2-1 strain (AID 157)
Conditions: S. cerevisiae mec2-1 strain, at 50.0 µM, active compounds read high
Compounds without any hit were thinned out: in the full panel of roughly 79,000, 15% have a hit. Where a SMILES comes first, the peptide text is derived from it.
Output spec: scalar in %, unitless text.

# molecule, growth inhibition (%)
records = [
    ("CN(C)CCCNCc1c[nH]c(=O)[nH]c1=O", 6.55),
    ("O=C(O)Cc1ccccc1C(=O)O", 2.3),
    ("CC(=O)OC12CC(C)C3(O)C4C=C(C)C(=O)[C@@]4(O)CC(CO)=C[C@H]3C1C2(C)C (stereo partly specified)", -6.15),
    ("Cc1nc2c(ncn2C2OC(CO)C(O)C2O)c(=O)[nH]1 (stereo unspecified)", 11.2),
    ("CCCCN(CCCC)C(=O)C(O)C(=O)N(CCCC)CCCC", -13.8),
    ("CC(Oc1ccc2ccccc2c1I)C(=O)O (stereo unspecified)", 12.8),
    ("O=C1CN(C(=O)c2ccccc2)C(=S)N1", 6.7),
    ("Nc1ccc(C2NC=CN2)cc1", -7.65),
    ("NC(Cc1ccccc1)C(=O)NCC(=O)NC(Cc1ccccc1)C(=O)NCC(=O)O (stereo unspecified) (H-FGFG-OH; configuration not given here)", -4.15),
    ("CCN(CC(O)COc1ccc2c(c1)[n+]([O-])nc(N)[n+]2[O-])C(C)=O (stereo unspecified)", 38),
]

// growth inhibition lookup, molecule = O=C1Nc2cc(F)ccc2C1=O , result: 15.1

// growth inhibition lookup, molecule = Cc1cc(C)c2nc(N)sc2c1 , result: 9.35

// growth inhibition lookup, molecule = C#CCOc1ccc(C(F)(F)F)cc1 , result: -15.4

// growth inhibition lookup, molecule = CNC(=S)NNc1ncnc2c1ncn2-c1ccc(C)cc1 , result: 6.3

// growth inhibition lookup, molecule = OC(CNc1ncccn1)(Cc1ccccc1)Cc1ccccc1 , result: -5.2

// growth inhibition lookup, molecule = CC1=NC2(CCCCC2)N(Cl)C(=O)C1SC#N (stereo unspecified) , result: -72.3

// growth inhibition lookup, molecule = NNC(=O)c1cccc(C(=O)NN)n1 , result: 4.9

// growth inhibition lookup, molecule = C[N+](C)(CCOc1ccccc1)Cc1ccccc1 , result: 25.8

// growth inhibition lookup, molecule = O=C1ON=C2C3CC4CC12CC1(C3)C(=O)ON=C41 , result: -6.45

// growth inhibition lookup, molecule = CCSC1=C(C)N(C=NC(C)(C)C)CC1 , result: -23.5

// growth inhibition lookup, molecule = CC(CCl)NS(=O)(=O)c1ccccc1 (stereo unspecified) , result: 2.85

###

Experiment: NCI Yeast Anticancer Drug Screen. Data for the mlh1 rad18 strain (AID 175)
Settings: S. cerevisiae mlh1 rad18 strain growth inhibition; at 50.0 µM
The panel holds about 79,000 compounds, 15% with a hit somewhere; the sample as a whole holds those more often. Activity calls are given as the source filed them. No stated cut-off is given here; in the data, active means growth inhibition above about 70%; inactive means the rest.
Returns: one label drawn from t for active, f for inactive

Recorded results for 5 molecules are shown here.
# molecule, assigned-class
measured = [
    ("C1COC2(C1)CCCO2", "f"),
    ("CC(=O)CC(=O)ON(C)C(C)=O", "f"),
    ("CC(NC1=CC(=O)c2cccnc2C1=O)C(O)c1ccccc1 (centres undefined)", "t"),
    ("OCCCN1CCN(CCO)CC1", "f"),
    ("N#Cc1c(CC(=O)O)cc(=O)n2c1[nH]c1ccccc12", "f"),
]

Prompt: Test call for this molecule, please: COc1cc(C2C(C(C)=O)=C(C)Oc3cc4c(cc32)OCO4)cc(OC)c1O (centres undefined)
Completion: f

Prompt: Test call for this molecule, please: O=C(Nc1ccccc1Cl)c1ccccc1O
Completion: f

Prompt: Test call for this molecule, please: COC1=CC(=O)N/C1=C(\OC)c1ccccc1
Completion: f

Prompt: Test call for this molecule, please: CC1C2CC(C/C2=N/O)C1(C)C (centres undefined)
Completion: f

Prompt: Test call for this molecule, please: CN(C)C=NCC(O)c1ccccc1 (centres undefined)
Completion: f
